# Tested on: Setaria viridis
# EXPERIMENT_NOTES: Herbicidal pre-emergence action
# Assay type: in vivo
# MEASUREMENT_CONDITIONS: pre-emergence method, 80 g/ha, greenhouse, visual assessment vs untreated controls
Exercise: state measured herbicidal effect SETVI for each of the compounds provided.
Only the number, expressed in %, is required.

Prompt: Please state recorded herbicidal effect SETVI (tested on Setaria viridis) of CCc1cc(C)cc(CC)c1C1=C(OC(=O)C(C)C)C2CC3(CC2C1=O)OCCCO3 (stereo not drawn)
Response: 80

Prompt: For CCC(=O)OC1=C(c2c(CC)cc(C)cc2CC)C(=O)C2CC3(COC(C)(C)O3)CC12 (stereo not drawn) [I-b-6] then?
Response: 60

Prompt: For CCC(=O)OC1=C(c2c(CC)cc(C)cc2CC)C(=O)C2CC3(COC(C)(C)O3)CC12 (stereo not drawn) [I-b-2] then?
Response: 40

Prompt: For C#CC(C)ON=C1C[C@@H]2C(O)=C(c3c(CC)cc(C)cc3CC)C(=O)[C@@H]2C1 (relative stereo) then?
Response: 20

Prompt: For CCOC(=O)OC1=C(c2c(C)cc(C)cc2C)C(=O)C2CC3(COC(C)(C)O3)CC12 (mixture of isomers) then?
Response: 0

Prompt: For CCc1cc(C)cc(CC)c1C1=C(OC(=O)C(C)(C)C)C2CC3(CC2C1=O)OCCCO3 (stereo not drawn) [I-b-27] then?
Response: 70

Prompt: For C=C1CC2C(=O)C(c3c(C)cc(C)cc3OC)=C([O-])C2C1.[Na+] (stereo not drawn) then?
Response: 100

Prompt: For CCc1cc(C)cc(CC)c1C1=C(O)C2CC(=NOCC(F)(F)F)CC2C1=O (stereo not drawn) then?
Response: 60

Prompt: For CCOC(=O)OC1=C(c2c(C)cc(C)cc2OC)C(=O)C2CC3(CC12)OCCCCO3 (racemic) then?
Response: 60

Prompt: For COC(=O)OC1=C(c2c(C)cc(C)cc2C)C(=O)C2CC3(CC12)OCC(C)CO3 (mixture of isomers) then?
Response: 60

Prompt: For C=C1CC2C(=O)C(c3c(C)cc(C)cc3C)=C(OC(=O)C(C)C)C2C1 (stereo not drawn) then?
Response: 80

Prompt: For CCOC(=O)OC1=C(c2c(C)cc(C)cc2OC)C(=O)C2CC3(CC12)OCCCO3 (racemic) then?
Response: 50
